target: PSGL-1(ECD)-hFc1 S116A protein (Sino Biological) (human); assay: ELISA; against WT PSGL-1(ECD)-hFc1
Sequence (chain, as listed by the source S116A S116A): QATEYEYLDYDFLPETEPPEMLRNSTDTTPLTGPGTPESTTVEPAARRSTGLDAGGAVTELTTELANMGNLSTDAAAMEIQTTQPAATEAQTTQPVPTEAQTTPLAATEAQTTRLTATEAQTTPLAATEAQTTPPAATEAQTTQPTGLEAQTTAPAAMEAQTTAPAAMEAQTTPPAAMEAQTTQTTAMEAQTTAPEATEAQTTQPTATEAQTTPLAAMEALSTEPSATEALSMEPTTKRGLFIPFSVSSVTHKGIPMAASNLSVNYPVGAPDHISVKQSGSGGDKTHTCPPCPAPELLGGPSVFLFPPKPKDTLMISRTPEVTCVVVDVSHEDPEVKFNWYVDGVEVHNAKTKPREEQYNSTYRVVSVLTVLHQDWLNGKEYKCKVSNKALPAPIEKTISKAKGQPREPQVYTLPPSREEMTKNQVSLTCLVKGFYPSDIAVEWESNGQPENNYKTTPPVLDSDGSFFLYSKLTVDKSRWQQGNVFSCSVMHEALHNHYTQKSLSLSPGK
Overview of recorded EC50/EC50WTprot for various binders
Respond with the bare value in fold.

Quick check: EC50/EC50WTprot of 19L04 (antibody, IgG4, V domains shown, From mouse immunisation; only variable domains given) VH: QIQLVQSGPELKKPGETVKISCKASGYTFTTYGMSWVKQAPGKGLKWMGWINTYSGVPTYADDFKGRFAFSLETSASTAYLQINNLKIEDTATYFCARHYYGSHYFDYWGQGTTLTVSS VL: DIMMTQSPSSLAMSVGQKVTLRCKSSQSLLNSSNQKNYLAWYQQKPGQSPKLLVYFASTRESGVPVRFIGSGSGTDFTLTISSMQAEDLADYFCQQHYFSPLTFGAGTKLELK ?
1.44

Proceed to 15A7 (antibody, V domains shown, Control mAb, recombinant; also called h15A7; 15A17) VH: EVQLVESGGGLVQPGGSLRLSCAASGFTFSSFGMHWVRQAPGKGLEWVAYINGGSSTIFYANAVKGRFTISRDNAKNTLYLQMNSLRAEDTAVYYCARYASYGGGAMDYWGQGTLVTVSS VL: DIQMTQSPSSLSASVGDRVTITCRSSQSIVHNDGNTYFEWYQQKPGKAPKLLIYKVSNRFSGVPSRFSGSGSGTHFTLTISSLQPEDFATYYCFQGSYVPLTFGQGTKVEIK
0.78

Another binder: 19N05 (antibody, V domains shown, From mouse immunisation; only variable domains given) VH: QIQLVQSGPELKKPGETVKISCKASGYTFTTYGMSWVKQAPGKGLKWMGWINTYSGVPTFADDFKGRFAFSLETSASTAYLQINNLKNEDTATFFCARNYYGNHYFDYWGQGTTLTVSS VL: DVQITQSPSYLAASPGETISINCRASNNINKYLAWYQEKPGKTNKLLIYSGSTLQSGIPSRFSGSGSGTDFTLTISSLEPEDFAMYHCQQHNYYPLTFGAGTKLELK
1.43

Try this binder too: 18F17 (antibody, V domains shown, Non-functional anti-PSGL-1 mAb (Verseau); only variable domains given) VH: QVTLKESGPGILQPSQTLSLTCSFSGFSLSTFGMGVGWIRQPSGKGLEWLAHIWWDDDKYYNPALKSRLTISKDTSKNQVFLKIANVDTADTATYYCAIYYDYGVGFDYWGQGTTLTVSS VL: DIVMTQAAPSVPVTPGESVSISCRSSKSLLHSNGYTFLYWFLQRPGQSPQLLIYRMSNLASGVPDRFSGSGSGTAFTLRISRVEAEDVGVYYCMQHLEYPFTFGTGTKLEIK
0.67
